Data origin, for the record: patent US20240270821A1

- experimental.system: T1, human GIP receptor (human) (UniProt P48546)
- T1 sequence (looked up): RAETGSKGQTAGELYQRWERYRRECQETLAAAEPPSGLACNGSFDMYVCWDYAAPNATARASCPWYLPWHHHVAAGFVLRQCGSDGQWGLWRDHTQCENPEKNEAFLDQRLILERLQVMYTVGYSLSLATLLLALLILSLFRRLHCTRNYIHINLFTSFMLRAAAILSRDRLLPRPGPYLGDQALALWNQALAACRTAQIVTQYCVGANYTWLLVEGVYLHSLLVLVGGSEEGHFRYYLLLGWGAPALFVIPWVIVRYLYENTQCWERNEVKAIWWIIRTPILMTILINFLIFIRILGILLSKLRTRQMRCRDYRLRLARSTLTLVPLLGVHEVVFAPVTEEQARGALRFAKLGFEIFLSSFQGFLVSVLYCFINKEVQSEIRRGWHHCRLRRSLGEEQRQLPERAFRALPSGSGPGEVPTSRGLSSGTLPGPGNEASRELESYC
- test.protocol: cell-based or functional assay
measurement.kind: Relative cAMP EC50
Hi, when you answer, please include the unit after the number. Thanks!

Solved entries (count: 2):
YXQGTXTSDXXIXLDXKAQXEFIEXLIEGGPPSGEPPPEGE (non-natural residues; lipidated Lys AEEA-γGlu-C18 diacid; C-term amide; synthetic construct; SITE 2: note = 2-Aminoisobutyric Acid; SITE 6: note = alpha-methyl-2-fluoro-L-phenylalanine; SITE 10: note = 3-(4-Pyridyl)-L-alanine; SITE 11: note = alpha-methyl-L-serine; SITE 13: note = alpha-methyl-leucine; SITE 16: note = L-ornithine; SITE 17: note = Lysine is chemically mo) [Example 1191] = 0.00992 nM
YXQGTFTSDFSKXLDKKAQXAFIEYLLEGGPSSGEPPPTEG (C-terminal amide; acylated lysine; synthetic construct; SITE 2: note = 2-Aminoisobutyric Acid; SITE 13: note = alpha-methyl-leucine; SITE 17: note = Lysine is chemically modified through conjugation of the epsilon-amino group of the Lysine side chain with (2-[2-(2-Amino-ethoxy)-ethoxy]-acetyl)-(gamma-Glu)-CO-(CH2) 18-CO2H; SITE 20: n) [Example 36] = 0.482 nM

Please find the next binder below.
Record request: Relative cAMP EC50 value, item YXQGTXTSDXSILLDKKAQXAFIEXLEEGGPSSGAPPPSGEGE (synthetic construct; SITE 2: note = 2-Aminoisobutyric Acid; SITE 6: note = alpha-methyl-2-fluoro-L-phenylalanine; SITE 10: note = 3-(4-Pyridyl)-L-alanine; SITE 17: note = Lysine is chemically modified through conjugation of the epsilon-amino group of the Lysine side chain with (gamma-Glu)2-CO-(CH2)1) [Example 667 (SEQ ID NO: 673)]
0.0217 nM
